Taken from patent US20040043420A1.

Let's look at some binders and their measured Equiv..
assay.system: T1, ER β (UniProt Q92731 1-530, limits assumed)
T1 construct: In vitro; also called estrogen receptor β; ERβ-ERE
T1 sequence (Q92731 whole entry): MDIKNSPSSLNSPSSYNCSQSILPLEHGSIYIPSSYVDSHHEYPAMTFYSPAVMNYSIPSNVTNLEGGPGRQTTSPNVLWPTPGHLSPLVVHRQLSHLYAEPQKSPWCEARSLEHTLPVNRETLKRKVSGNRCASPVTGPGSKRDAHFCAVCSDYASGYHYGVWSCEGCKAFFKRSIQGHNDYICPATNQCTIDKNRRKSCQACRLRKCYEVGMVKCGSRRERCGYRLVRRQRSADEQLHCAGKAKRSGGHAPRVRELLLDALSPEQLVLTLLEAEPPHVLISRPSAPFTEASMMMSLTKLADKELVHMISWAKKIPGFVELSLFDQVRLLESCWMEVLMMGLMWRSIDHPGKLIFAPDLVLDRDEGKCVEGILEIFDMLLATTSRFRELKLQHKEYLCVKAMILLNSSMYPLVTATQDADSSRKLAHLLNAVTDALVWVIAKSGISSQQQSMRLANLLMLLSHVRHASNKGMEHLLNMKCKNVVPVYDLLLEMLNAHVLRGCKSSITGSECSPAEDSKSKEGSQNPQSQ
protocol: peptide probe binding to ERβ, Estriol
A bare number is not enough; add the unit after it.

Solved entries:
SSWDMHQFFWEGVSR (also called AB3) [α/β III]: -57%
SRLPPSVFSMCGSEVCLSR (also called 9T-β; 9Tβ) [T1-10]: -75%
SSPGSREWFKDMLSR (also called α/β V; AB5) [14T-β]: 0%

*Q* Record request: Equiv. value, item SSEACVGRWMLCEQLGVSR (also called β III; B3) [12B-β]
*A* 77%
